# tgt: factor Xa (Homo sapiens)
# Construct: human factor Xa samples; gift of Dr. T. Lindhout (University of Limburg, Maastricht)
# Sequence (P00742 41-179 limits assumed): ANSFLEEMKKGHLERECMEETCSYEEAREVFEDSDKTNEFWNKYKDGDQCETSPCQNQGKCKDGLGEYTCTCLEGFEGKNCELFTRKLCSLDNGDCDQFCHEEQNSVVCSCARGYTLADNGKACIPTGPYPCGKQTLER
# Sequence (P00742 235-488 limits assumed): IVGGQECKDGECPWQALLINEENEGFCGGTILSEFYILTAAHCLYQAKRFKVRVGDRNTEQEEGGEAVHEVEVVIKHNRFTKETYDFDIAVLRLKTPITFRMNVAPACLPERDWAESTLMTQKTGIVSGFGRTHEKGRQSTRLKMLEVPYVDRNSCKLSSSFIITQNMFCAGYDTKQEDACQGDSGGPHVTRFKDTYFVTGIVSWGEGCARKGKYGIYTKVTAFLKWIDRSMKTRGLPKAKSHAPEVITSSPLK
# assay_details: Kinetics of hydrolysis of substrates by human factor Xa in buffer A at 37° C. (Example 2, Table 2)
# Assay type: biochemical
Square brackets hold non-standard residues; d marks the D form. Peptide text beside a SMILES is read from it. * marks the point of attachment. pNA = O=[N+]([O-])c1ccc(N*)cc1; Tos = Cc1ccc(S(=O)(=O)*)cc1; Pip = O=C(O)[C@@H]1CCCCN1; Boc = CC(C)(C)OC(=O)*
attribute_measured: kcat /Km
Form entry: enter the amount, then its unit.

A selection of reference data follows.
COC(=O)CC(=O)N[C@@H](C(=O)N[C@@H](CCCNC(=N)N)C(=O)Nc1ccc([N+](=O)[O-])cc1)C(C)C.Cl [MZ-D-Val-Arg-pNA.HCl]; 69.5 M/s
Cl.Cl.NCCCC[C@H](NC(=O)[C@@H]1CCCCN1C(=O)[C@H](N)Cc1ccccc1)C(=O)Nc1ccc([N+](=O)[O-])cc1 [2HCl.H-D-Phe-Pip-Lys-pNA] (H-[dF]-[Pip]-Lys-pNA); 631 M/s
COC(=O)C(C)C(=O)NC(C)C(=O)NC(CCCNC(=N)N)C(=O)Nc1ccc([N+](=O)[O-])cc1.Cl (mixture of isomers) [MMZ-Ala-Arg-pNA.HCl]; 5750 M/s
COC(=O)CC(=O)N[C@H](C(=O)N[C@@H](CCCNC(=N)N)C(=O)Nc1ccc([N+](=O)[O-])cc1)C(C)C.Cl [MZ-Val-Arg-pNA.HCl]; 2500 M/s
CC(C)[C@H](NC(=O)CNC(=O)OC(C)(C)C)C(=O)N[C@@H](CCCNC(=N)N)C(=O)Nc1ccc([N+](=O)[O-])cc1.Cl [Boc-Gly-Val-Arg-pNA.HCl] (Boc-Gly-Val-Arg-pNA); 1980 M/s

Q: Look up kcat /Km for this molecule: COC(=O)C(C)(C)C(=O)NCC(=O)N[C@@H](CCCNC(=N)N)C(=O)Nc1ccc([N+](=O)[O-])cc1.Cl [DMMZ-Gly-Arg-pNA.HCl]
Result: 4790 M/s

Q: What measured kcat /Km goes with COc1ccc(COC(=O)NCC(=O)N[C@@H](CCCNC(=N)N)C(=O)Nc2ccc([N+](=O)[O-])cc2)cc1.Cl [MZ-Gly-Arg-pNA.HCl] ?
Result: 11700 M/s

Q: State the recorded kcat /Km for this entry: COC(=O)C(C)C(=O)NCC(=O)NC(CCCNC(=N)N)C(=O)Nc1ccc([N+](=O)[O-])cc1.Cl (mixture of isomers) [MMZ-Gly-Arg-pNA.HCl]
Result: 6860 M/s

Q: What value of measured kcat /Km is listed for COC(=O)C(C)(C)C(=O)N[C@@H](C)C(=O)N[C@@H](CCCNC(=N)N)C(=O)Nc1ccc([N+](=O)[O-])cc1.Cl [DMMZ-Ala-Arg-pNA.HCl] ?
Result: 4930 M/s

Q: Endpoint output: kcat /Km of COC(=O)CC(=O)N[C@@H](C)C(=O)N[C@@H](CCCNC(=N)N)C(=O)Nc1ccc([N+](=O)[O-])cc1.Cl [MZ-Ala-Arg-pNA.HCl] . Value?
Result: 9250 M/s

Q: Any idea what its kcat /Km is? The molecule is CC(C)[C@H](NC(=O)CN)C(=O)N[C@@H](CCCNC(=N)N)C(=O)Nc1ccc([N+](=O)[O-])cc1.Cl.Cl [2HCl.H-Gly-Val-Arg-pNA] (H-Gly-Val-Arg-pNA)
Result: 1310 M/s

Q: Please look up its kcat /Km: CCC(CC)(C(=O)NCC(=O)N[C@@H](CCCNC(=N)N)C(=O)Nc1ccc([N+](=O)[O-])cc1)C(=O)OC.Cl [DEMZ-Gly-Arg-pNA.HCl]
Result: 1960 M/s

Q: Entry COC(=O)CC(=O)N[C@H](C)C(=O)N[C@@H](CCCNC(=N)N)C(=O)Nc1ccc([N+](=O)[O-])cc1.Cl [MZ-D-Ala-Arg-pNA.HCl] : reported kcat /Km = ?
Result: 28.5 M/s

Q: Sample Cl.N=C(N)NCCC[C@H](NC(=O)CNS(=O)(=O)c1ccc2ccccc2c1)C(=O)Nc1ccc([N+](=O)[O-])cc1 [βNS-Gly-Arg-pNA.HCl] — what was its kcat /Km?
Result: 17300 M/s

Q: Given the entry NC(N)=NCCC[C@H](NC(=O)[C@@H]1CCCCN1C(=O)[C@H](N)Cc1ccccc1)C(=O)Nc1ccc([N+](=O)[O-])cc1 [2HCl.H-D-Phe-Pip-Arg-pNA] , report its measured kcat /Km.
Result: 42900 M/s

Q: Fill in the blank: the reported kcat /Km of Cc1ccc(S(=O)(=O)NCC(=O)N[C@@H](CCCNC(=N)N)C(=O)Nc2ccc([N+](=O)[O-])cc2)cc1.Cl [pTS-Gly-Arg-pNA.HCl] (Tos-Gly-Arg-pNA) is ____.
Result: 39800 M/s

Q: Look up kcat /Km for this molecule: Cl.Cl.N=C(N)NCCC[C@H](NC(=O)[C@@H]1CCCN1C(=O)[C@H](N)Cc1ccccc1)C(=O)Nc1ccc([N+](=O)[O-])cc1 [2HCl.H-D-Phe-Pro-Arg-pNA]
Result: 26900 M/s
